Biological target: α1a-AR (Homo sapiens, UniProt P35348)
Sequence (P35348 1-466): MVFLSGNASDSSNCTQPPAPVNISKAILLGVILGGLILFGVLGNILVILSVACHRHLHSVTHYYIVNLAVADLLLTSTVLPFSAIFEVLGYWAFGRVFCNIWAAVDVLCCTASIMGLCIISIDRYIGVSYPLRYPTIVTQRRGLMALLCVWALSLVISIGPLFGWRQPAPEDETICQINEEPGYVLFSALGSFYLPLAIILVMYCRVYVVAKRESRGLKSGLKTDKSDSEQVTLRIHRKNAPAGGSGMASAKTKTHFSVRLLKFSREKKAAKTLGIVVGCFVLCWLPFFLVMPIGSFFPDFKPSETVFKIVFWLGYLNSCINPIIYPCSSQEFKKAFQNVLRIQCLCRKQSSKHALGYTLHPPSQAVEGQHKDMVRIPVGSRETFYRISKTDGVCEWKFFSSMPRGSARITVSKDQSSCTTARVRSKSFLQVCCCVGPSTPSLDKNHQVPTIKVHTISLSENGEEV
Assay: radioligand competition, [3H]prazosin
Type: binding
Conditions: Cheng-Prusoff
Readings of pKi, human cloned receptor / α1 ^a for the listed compounds

Recorded pKi, human cloned receptor / α1 ^a, per entry:
COc1cccc(OCCNCC2COCC(c3ccccc3)(c3ccccc3)O2)c1 (stereo not shown) [compound 7] | 6.41
Oc1ccc(OCCNCC2COCC(c3ccccc3)(c3ccccc3)O2)cc1 (stereo not shown) [compound 10, 10] | 6.56
Oc1cccc(OCCNCC2COCC(c3ccccc3)(c3ccccc3)O2)c1 (stereo not shown) [compound 8] | < 6

// lookup pKi, human cloned receptor / α1 ^a for c1ccc(C2(c3ccccc3)COCC(CNCCOc3ccc4c(c3)OCO4)O2)cc1 (stereo not shown) [compound 13]
6.32
